test system: Aphis craccivoral; assay: Insecticidal activities to aphids, immersion method; format: in vivo; details: in vivo
Measured Aphis craccivoral Mortality (%) 500 ppm, listed per entry for reference.
# number only, unit % dropped from output

[[record]]
smilestext = "CN=C(NCc1ccc(Cl)nc1)C(=Cc1ccc(Br)o1)[N+](=O)[O-]"
measurementtarget = "Aphis craccivoral"
measure = "Aphis craccivoral Mortality (%) 500 ppm"
unitname = "%"
measuredresult = 67


Hello, I am looking for reported Aphis craccivoral Mortality (%) 500 ppm with Aphis craccivoral for `CN=C(C(=C(C)c1ccc[nH]1)[N+](=O)[O-])N(C)Cc1ccc(Cl)nc1` . Could you help?
98

Hello, I am looking for reported Aphis craccivoral Mortality (%) 500 ppm with Aphis craccivoral for `O=[N+]([O-])C(=Cc1ccc(Cl)o1)C1=NCCN1Cc1cnc(Cl)s1` . Could you help?
100

Hello, I am looking for reported Aphis craccivoral Mortality (%) 500 ppm with Aphis craccivoral for `O=[N+]([O-])C(=Cc1cncs1)C1=NCCN1Cc1ccc(Cl)nc1` . Could you help?
100

---

test system: Nilaparvata lugens; assay: Insecticidal activities to plant hopper, spraying method; type: in vivo; conditions: in vivo
measure: Nilaparvata lugens Mortality (%) 500 ppm
# number only, unit % dropped from output

Worked cases, Nilaparvata lugens Mortality (%) 500 ppm given:
[[record]]
molecule = "O=[N+]([O-])C(=Cc1cc(Br)cs1)C1=NCCN1Cc1ccc(Cl)nc1 [Compound 22]"
measuredresult = 100

[[record]]
molecule = "O=[N+]([O-])C(=Cc1ccc(Cl)nc1)C1=NCCN1Cc1ccc(Cl)nc1 [Compound 40]"
measuredresult = 44

[[record]]
molecule = "CCN(Cc1ccc(Cl)nc1)C(=NC)C(=Cc1ccc(Br)o1)[N+](=O)[O-] [Compound 183]"
measuredresult = 100

[[record]]
molecule = "CN=C(NCc1ccc(Cl)nc1)C(=Cc1ccoc1)[N+](=O)[O-] [Compound 152]"
measuredresult = 64


Hello, I am looking for reported Nilaparvata lugens Mortality (%) 500 ppm with Nilaparvata lugens for CCc1ccc(C=C(C2=[N+](C)CCN2Cc2ccc(Cl)nc2)[N+](=O)[O-])o1.[Cl-] [Compound 257] . Could you help?
100

Hello, I am looking for reported Nilaparvata lugens Mortality (%) 500 ppm with Nilaparvata lugens for CN=C(C(=Cc1ccc([N+](=O)[O-])s1)[N+](=O)[O-])N(C)Cc1ccc(Cl)nc1 [Compound 168] . Could you help?
90

Hello, I am looking for reported Nilaparvata lugens Mortality (%) 500 ppm with Nilaparvata lugens for C[N+]1=C(C(=Cc2cccs2)[N+](=O)[O-])N(Cc2cnc(Cl)s2)CC1.[Cl-] [Compound 280] . Could you help?
100

---

test system: Aphis craccivoral; test: Insecticidal activities to aphids, immersion method; type: in vivo; settings: in vivo
measure: Aphis craccivoral Mortality (%) 500 ppm
# number only, unit % dropped from output

[[record]]
compound = "CCN=C(C(=Cc1ccc(Cl)o1)[N+](=O)[O-])N(C)Cc1ccc(Cl)nc1"
measuredresult = 87

[[record]]
compound = "O=[N+]([O-])C(=Cc1cc2ccccc2[nH]1)C1=NCCN1Cc1ccc(Cl)nc1"
measuredresult = 76

[[record]]
compound = "CC(=C(C1=NCCN1C(C)c1ccc(Cl)nc1)[N+](=O)[O-])c1cccs1 (racemic)"
measuredresult = 100

[[record]]
compound = "CCc1ccc(C=C(C2=[N+](C)CCN2Cc2ccc(Cl)nc2)[N+](=O)[O-])s1.[Cl-]"
measuredresult = 100

[[record]]
compound = "CC(=C(C1=NCCN1Cc1ccc(Cl)nc1)[N+](=O)[O-])c1ccco1"
measuredresult = 45

[[record]]
compound = "C[N+]1=C(C(=Cc2ccc(Cl)s2)[N+](=O)[O-])N(Cc2ccc(Cl)nc2)CC1.[Cl-]"
measuredresult = 100

[[record]]
compound = "CCN(C(=NC)C(=Cc1ccc([N+](=O)[O-])o1)[N+](=O)[O-])C(C)c1ccc(Cl)nc1 (stereo not drawn)"
measuredresult = 94

[[record]]
compound = "CCN(Cc1ccc(Cl)nc1)C(=NC)C(=Cc1ccoc1)[N+](=O)[O-] [Compound 242]"
measuredresult = 100


What value of measured Aphis craccivoral Mortality (%) 500 ppm is listed for `N#CC(=Cc1ccco1)C1=NCCN1Cc1ccc(Cl)nc1` ?
100

What value of measured Aphis craccivoral Mortality (%) 500 ppm is listed for `CC[N+]1=C(C(=Cc2ccc([N+](=O)[O-])s2)[N+](=O)[O-])N(Cc2ccc(Cl)nc2)CC1.[Cl-]` ?
100

What value of measured Aphis craccivoral Mortality (%) 500 ppm is listed for `O=[N+]([O-])C(=Cc1cc(Cl)cs1)C1=NCCN1Cc1cnc(Cl)s1` ?
100

What value of measured Aphis craccivoral Mortality (%) 500 ppm is listed for `O=[N+]([O-])C(=Cc1ccsc1)C1=NCCN1Cc1ccc(Cl)nc1` ?
100

What value of measured Aphis craccivoral Mortality (%) 500 ppm is listed for `CN=C(C(=Cc1ccc([N+](=O)[O-])o1)[N+](=O)[O-])N(C)Cc1ccc(Cl)nc1` ?
100

What value of measured Aphis craccivoral Mortality (%) 500 ppm is listed for `CN=C(NCc1ccc(Cl)nc1)C(=Cc1ccc(Cl)o1)[N+](=O)[O-]` ?
52

What value of measured Aphis craccivoral Mortality (%) 500 ppm is listed for `CN=C(NCc1ccc(Cl)nc1)C(=Cc1cccs1)[N+](=O)[O-]` ?
89

What value of measured Aphis craccivoral Mortality (%) 500 ppm is listed for `O=[N+]([O-])C(=Cc1ccc(Br)o1)C1=NCCCN1Cc1ccc(Cl)nc1` ?
100

---

Tested on: Nilaparvata lugens
Test: Insecticidal activities to plant hopper, spraying method
Type: in vivo
Conditions: in vivo
Experimental: Mortality (%)=(the number of the survival aphis in control group−the number of the survival aphis in the treatment group)/the number of the survival aphis in control group×100% (2): Insecticidal Activities to Plant hopper Plant hopper (Nilaparvata lugens), which belongs to Homoptera and has a piercing-sucking mouthpart, is a common insect for agricultural plant. Nilaparvata lugens was tested by spraying method. […]
Measured Nilaparvata lugens Mortality (%) 500 ppm, listed per entry for reference.

Worked cases, Nilaparvata lugens Mortality (%) 500 ppm given:
[[record]]
compound = "N#CC(=Cc1cc(Cl)c(Cl)s1)C1=NCCN1Cc1ccc(Cl)nc1"
measure = "Nilaparvata lugens Mortality (%) 500 ppm"
measuredresult = "100%"

[[record]]
compound = "O=[N+]([O-])C(=Cc1cc(Br)co1)C1=NCCN1Cc1cnc(Cl)s1"
measure = "Nilaparvata lugens Mortality (%) 500 ppm"
measuredresult = "100%"

[[record]]
compound = "O=[N+]([O-])C(=Cc1cccs1)C1=NCCCN1Cc1ccc(Cl)nc1"
measure = "Nilaparvata lugens Mortality (%) 500 ppm"
measuredresult = "100%"


What value of measured Nilaparvata lugens Mortality (%) 500 ppm is listed for CN=C(C(=Cc1cccs1)[N+](=O)[O-])N(C)Cc1ccc(Cl)nc1 [Compound 236] ?
79%

What value of measured Nilaparvata lugens Mortality (%) 500 ppm is listed for `O=[N+]([O-])C(=Cc1ccc([N+](=O)[O-])s1)C1=NCCN1Cc1cnc(Cl)s1` ?
100%

What value of measured Nilaparvata lugens Mortality (%) 500 ppm is listed for `N#CC(=Cc1ccoc1)C1=NCCN1Cc1ccc(Cl)nc1` ?
100%

What value of measured Nilaparvata lugens Mortality (%) 500 ppm is listed for `CN=C(C(=Cc1ccc(Br)o1)[N+](=O)[O-])N(C)Cc1cnc(Cl)s1` ?
87%

What value of measured Nilaparvata lugens Mortality (%) 500 ppm is listed for `CCN=C(C(=Cc1ccco1)[N+](=O)[O-])N(CC)Cc1ccc(Cl)nc1` ?
100%

What value of measured Nilaparvata lugens Mortality (%) 500 ppm is listed for `O=[N+]([O-])C(=Cc1cc(Br)co1)C1=NCCCN1Cc1ccc(Cl)nc1` ?
100%

---

tested on: Aphis craccivoral; assay: Insecticidal activities to aphids, immersion method; assay type: in vivo; details: in vivo
Measured Aphis craccivoral Mortality (%) 500 ppm, listed per entry for reference.
Please state the number and follow it with the unit.

Worked cases, Aphis craccivoral Mortality (%) 500 ppm given:
[[record]]
compound = "N#CC(=Cc1cc(Cl)c(Cl)s1)C1=NCCN1Cc1ccc(Cl)nc1"
measurementtarget = "Aphis craccivoral"
measure = "Aphis craccivoral Mortality (%) 500 ppm"
measuredresult = "94%"

[[record]]
compound = "CCN(Cc1ccc(Cl)nc1)C(=NC)C(=Cc1ccc(Cl)s1)[N+](=O)[O-]"
measurementtarget = "Aphis craccivoral"
measure = "Aphis craccivoral Mortality (%) 500 ppm"
measuredresult = "100%"

[[record]]
compound = "CCN=C(C(=Cc1cccs1)[N+](=O)[O-])N(C)Cc1ccc(Cl)nc1"
measurementtarget = "Aphis craccivoral"
measure = "Aphis craccivoral Mortality (%) 500 ppm"
measuredresult = "100%"

[[record]]
compound = "CC(=C(C1=NCCN1C(C)c1ccc(Cl)nc1)[N+](=O)[O-])c1ccc([N+](=O)[O-])o1 (racemic)"
measurementtarget = "Aphis craccivoral"
measure = "Aphis craccivoral Mortality (%) 500 ppm"
measuredresult = "56%"


Hello, I am looking for reported Aphis craccivoral Mortality (%) 500 ppm with Aphis craccivoral for `CCc1ccc(C=C(C2=NCCN2Cc2ccc(Cl)nc2)[N+](=O)[O-])s1` . Could you help?
100%

Hello, I am looking for reported Aphis craccivoral Mortality (%) 500 ppm with Aphis craccivoral for `O=[N+]([O-])C(=Cc1ccccn1)C1=NCCN1Cc1ccc(Cl)nc1` . Could you help?
34%
